assay: Inhibitory activity against IMP-1 metallo-beta-lactamase (MBL)
ATTRIBUTE_MEASURED: pIC50
Conceptually, pIC50 converts a concentration in mol/L into minus its log10.

Ask: Look at this molecule and give its reported pIC50. `O=C(O)[C@H](S)Cc1ccc(-c2ccccc2)cc1`
Result: 7.24

Ask: Request: `O=C(S[C@H](Cc1ccc(-c2ccccc2)cc1)C(=O)O)c1ccccc1`
Result: 9.39

Ask: Request: `C=CCOC(=O)N[C@H](C)C(=O)S[C@H](Cc1ccccc1)C(=O)O`
Result: 4.19

Ask: Request: `COc1cccc(C(=O)N[C@H](C)C(=O)S[C@H](Cc2ccc(-c3ccccc3)cc2)C(=O)O)c1`
Result: 4.42

Ask: Request: `COc1ccc(CC(=O)N[C@H](C)C(=O)S[C@H](Cc2ccc(-c3ccccc3)cc2)C(=O)O)cc1`
Result: 4.92

Ask: Request: `C[C@@H](NC(=O)Cc1ccccc1OCc1ccccc1)C(=O)S[C@H](Cc1ccc(-c2ccccc2)cc1)C(=O)O`
Result: 4.62

Ask: Request: `O=C(S[C@@H](Cc1ccc(-c2ccccc2)cc1)C(=O)O)c1ccccc1`
Result: 3.92

Ask: Request: `C[C@@H](NC(=O)Cc1ccc(N(C)C)cc1)C(=O)S[C@H](Cc1ccc(-c2ccccc2)cc1)C(=O)O`
Result: 4.26

Ask: Request: `CCCC(=O)N[C@H](C)C(=O)S[C@H](Cc1ccc(-c2ccccc2)cc1)C(=O)O`
Result: 5.03

# credit: ChEMBL document CHEMBL1132104
